- TEST SUMMARY: Selectivity index, ratio of CC50 for cytotoxicity against mouse RAW264.7 cells to IC50 for antitrypanosomal activity against Trypanosoma cruzi amastigote
- Type: toxicity, cell-based
- CONDITION SUMMARY: read-out: Ratio CC50/IC50
MEASURED ENDPOINT: selectivity ratio
Numbers only.

| STRUCTURE NOTATION | selectivity ratio |
| --- | --- |
| COc1ccc(CC(=O)Nc2nnc(S(N)(=O)=O)s2)cc1 | 1 |
| NS(=O)(=O)c1ccc(NC(=O)Cc2ccc(Cl)cc2)c(F)c1 | 3 |
| NS(=O)(=O)c1ccc(CCNC(=O)Cc2ccc(Br)cc2)cc1 | 0.44 |
| NS(=O)(=O)c1nnc(NC(=O)Cc2ccc(Cl)cc2)s1 | 1 |
| NS(=O)(=O)c1ccc(NC(=O)Cc2ccccc2Br)c(F)c1 | 3 |

Here is the next item to consider.
Request: Dear colleague, please send me the reported selectivity ratio for NS(=O)(=O)c1nnc(NC(=O)Cc2ccccc2Br)s1 when you can.
Response: 5

---

- TEST SUMMARY: Selectivity index, ratio of CC50 for rat L6 cells to IC50 for antitrypanosomal activity against bloodstream Trypanosoma brucei
- Type: toxicity
- CONDITION SUMMARY: read-out: Ratio CC50/IC50
MEASURED ENDPOINT: selectivity ratio
One number for each entry.

Request: Given the molecule CCOC(=O)c1ccc(N/C=C2/SC(=O)N(C(Cc3ccccc3)C(=O)OCC)C2=S)cc1 (configuration not stated) , write its reported selectivity ratio.
Response: 409

---

- Test system: Trypanosoma cruzi
- TEST SUMMARY: Antitrypanosomal activity against Trypanosoma cruzi epimastigote Dm28c strain assessed as parasite growth inhibition
- Format: functional, organism-based
Exercise: state measured IC50 for each of the compounds provided.
Give bare numbers, in µM.

Use these answered entries as a reference point.
| STRUCTURE NOTATION | UNIT NAME | IC50 |
| --- | --- | --- |
| NS(=O)(=O)c1nnc(NC(=O)Cc2ccc(Cl)cc2)s1 | µM | 6.24 |
| NS(=O)(=O)c1ccc(NC(=O)Cc2ccccc2Br)c(F)c1 | µM | 5.66 |
| NS(=O)(=O)c1ccc(NC(=O)Cc2ccc(Cl)cc2)c(F)c1 | µM | 3.54 |
| COc1ccc(CC(=O)Nc2nnc(S(N)(=O)=O)s2)cc1 | µM | 6.69 |
| NS(=O)(=O)c1nnc(NC(=O)Cc2ccccc2Br)s1 | µM | 3.98 |

Consider the additional compound presented here.
Request: Quote IC50 reported for NS(=O)(=O)c1ccc(CCNC(=O)Cc2ccc(Br)cc2)cc1 please.
Response: 7.36

---

- TEST SUMMARY: Selectivity index, ratio of CC50 for human WI26VA4 cells to ratio of IC50 for antileishmanial activity against Leishmania infantum MHOM/BR/74/PP75 promastigote
- Format: toxicity
- CONDITION SUMMARY: read-out: Ratio CC50/IC50
For each record, write down the corresponding selectivity ratio.
One number for each entry.

Solved entries (count: 4):
| STRUCTURE NOTATION | selectivity ratio |
| --- | --- |
| O=C1NC(=O)/C(=C/c2ccc(Cl)c(Cl)c2)S1 | 1.85 |
| O=C1NC(=O)/C(=C/c2cc(Cl)cc(Cl)c2Cl)S1 | 0.96 |
| O=C1NC(=O)/C(=C/c2ccccc2Cl)S1 | 0.89 |
| O=C1NC(=O)/C(=C/c2ccc(Cl)cc2Cl)S1 | 0.82 |

--- query ---
Request: Consider the compound O=C1NC(=O)/C(=C/c2cc(Cl)cc(Br)c2O)S1 . State its measured selectivity ratio.
Response: 0.74

---

- Tested on: Leishmania panamensis
- TEST SUMMARY: Antileishmanial activity against Leishmania panamensis MHOM/CO/87/UA140-EpiR-GFP strain promastigotes assessed as inhibition of parasite growth incubated for 72 hrs by flow cytometric analysis
- Type: functional, organism-based
MEASURED ENDPOINT: pIC50
Give bare numbers, as −log10 of the molar value.

Request: Tell me measured pIC50 for O=C1C=C(c2ccc(C(F)(F)F)cc2)S(=O)(=O)c2ccc(F)cc21 please.
Response: 5.49

---

- Test system: Trypanosoma cruzi
- TEST SUMMARY: Antitrypanosomal activity against Trypanosoma cruzi amastigote assessed as parasite growth inhibition
- Type: functional, organism-based
# condition met = IC50 below 3 µM (exclusive); condition not met = IC50 at/above 3 µM

Request: Hello, is IC50 of the following molecule strictly smaller than 3 µM? NS(=O)(=O)c1nnc(NC(=O)Cc2ccc(Cl)cc2)s1
Response: condition not met

Request: Bench note: check whether NS(=O)(=O)c1ccc(CCNC(=O)Cc2ccc(Br)cc2)cc1 shows IC50 below 3 µM
Response: condition not met

Request: Is 3 µM strictly greater than the molecule's reported IC50? molecule: NS(=O)(=O)c1ccc(NC(=O)Cc2ccc(Cl)cc2)c(F)c1
Response: condition met

Request: Please let me know if NS(=O)(=O)c1nnc(NC(=O)Cc2ccccc2Br)s1 shows IC50 below 3 µM.
Response: condition met

Request: Could you please tell me whether IC50 recorded for NS(=O)(=O)c1ccc(NC(=O)Cc2ccccc2Br)c(F)c1 is less than 3 µM?
Response: condition met

Request: Threshold test, IC50 < 3 µM: COc1ccc(CC(=O)Nc2nnc(S(N)(=O)=O)s2)cc1
Response: condition not met

---

- TEST SUMMARY: Selectivity index, ratio of LC50 for human U-937 cells to ratio of IC50 for antileishmanial activity against Leishmania panamensis MHOM/CO/87/UA140-EpiR-GFP strain promastigotes
- Type: toxicity
- CONDITION SUMMARY: read-out: Ratio LC50/IC50
MEASURED ENDPOINT: selectivity ratio
One number for each entry.

Your task in this section: give selectivity ratio for each listed record.
1. ClCCN(CCCl)c1nc(Cl)c(C2CC(c3ccc(Br)cc3)=NN2c2ccccc2)s1 (configuration not stated)
2. COc1cc(C2=NN(c3ccccc3)C(c3sc(N(CCCl)CCCl)nc3Cl)C2)cc(OC)c1OC (configuration not stated)

Response:
1.6
1.48

---

Field: selectivity ratio. Provide a value for each of the compounds that follow.
- TEST SUMMARY: Selectivity index, ratio of CC50 for human WI26VA4 cells to ratio of IC50 for antileishmanial activity against Leishmania braziliensis MHOM/BR/75/M2903 promastigote
- Assay type: toxicity
- CONDITION SUMMARY: read-out: Ratio CC50/IC50
Answers are plain numbers.

| STRUCTURE NOTATION | selectivity ratio |
| --- | --- |
| O=C1NC(=O)/C(=C/c2ccccc2Cl)S1 | 0.86 |
| O=C1NC(=O)/C(=C/c2cc(Cl)cc(Br)c2O)S1 | 0.55 |
| O=C1NC(=O)/C(=C/c2ccc(Cl)c(Cl)c2)S1 | 0.66 |

Consider the following items and state reported selectivity ratio for each.
1. O=C1NC(=O)/C(=C/c2cc(Cl)cc(Cl)c2Cl)S1
2. O=C1NC(=O)/C(=C/c2ccc(Cl)cc2Cl)S1

Response:
[0.63, 0.76]

---

- TEST SUMMARY: Selectivity index, ratio of CC50 for cytotoxicity against mouse RAW264.7 cells to IC50 for antitrypanosomal activity against Trypanosoma cruzi epimastigote
- Type: toxicity, cell-based
- CONDITION SUMMARY: read-out: Ratio CC50/IC50
Provide the reported selectivity ratio of each item.
One number for each entry.

| STRUCTURE NOTATION | selectivity ratio |
| --- | --- |
| NS(=O)(=O)c1nnc(NC(=O)Cc2ccc(Cl)cc2)s1 | 1 |

Give selectivity ratio for each of the items listed below.
1. COc1ccc(CC(=O)Nc2nnc(S(N)(=O)=O)s2)cc1
2. NS(=O)(=O)c1ccc(NC(=O)Cc2ccccc2Br)c(F)c1
3. NS(=O)(=O)c1ccc(NC(=O)Cc2ccc(Cl)cc2)c(F)c1

Response:
1
1
2

For the 2 molecules below, give their selectivity ratio values.
1. NS(=O)(=O)c1nnc(NC(=O)Cc2ccccc2Br)s1
2. NS(=O)(=O)c1ccc(CCNC(=O)Cc2ccc(Br)cc2)cc1

Response:
2
0.44

---

- Tested on: Leishmania infantum
- TEST SUMMARY: Antileishmanial activity against Leishmania infantum MHOM/BR/74/PP75 strain promastigotes assessed as reduction in cell viability incubated for 48 hrs by MTT assay
- Type: functional, organism-based
- CONDITION SUMMARY: MHOM/BR/74/PP75, 48 h
Provide the reported IC50 of each item.
Answers are plain numbers, in µM.

Return reported IC50 values for all items listed beneath this line.
1. O=C1NC(=O)/C(=C/c2ccccc2Cl)S1
2. O=C1NC(=O)/C(=C/c2ccc(Cl)c(Cl)c2)S1
3. O=C1NC(=O)/C(=C/c2cc(Cl)cc(Br)c2O)S1

Response:
1. 68.8
2. 23.4
3. 35.9

Please give IC50 for each item listed below.
1. O=C1NC(=O)/C(=C/c2ccc(Cl)cc2Cl)S1
2. O=C1NC(=O)/C(=C/c2cc(Cl)cc(Cl)c2Cl)S1

Response:
[40.9, 30.4]

Where these numbers come from: ChEMBL document CHEMBL5352465
